Biological target: T1, mouse BCMA with a His tag (ACROBiosystems, Catalog No.: BCA-M52H3) (mouse)
T1 construct: Bought His-tagged recombinant protein
T1 chain: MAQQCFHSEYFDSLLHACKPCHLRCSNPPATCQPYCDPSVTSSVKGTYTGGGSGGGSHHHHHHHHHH
Assay: ELISA, plate-coated mouse BCMA-His
Consider the following binders; for each one, report its EC50.
Answers are plain numbers, in µg/mL.

binder	EC50 (µg/mL)
SCT-Aa16(h/h) (antibody, V domains shown, Full IgG format, chimeric: human IgG1 heavy chain constant region, human kappa light chain constant region) VH: EVQLQQSGPELVKPGASVKMSCKGSGYTFTNYIMHWVKQKPGQGLEWIGYIIPYNDNTKYNEKFKGKATLTSDKSSSTAYMELSSLTSEDSAVYYCATYEYDVGLDYWGQGTTLTVSS VL: DLQMTQTTSSLSASLGDRVTISCSARQGIVNYLNWYQQKPDGTVKLLIYNTSSLHSGVPSRFSGSGSGTDYSLTISNLEPEDIATYYCQQYSKLPWTFGGGTKLEIK	1.08
SCT-Aa12(m/m) (antibody, V domains shown, Full IgG format: mouse IgG1 heavy chain constant region, mouse kappa light chain constant region) VH: QVQLQQSDAELVKPGASVKISCKVSGYTFTDYTIHWMKQRPEQGLEWIGYIFPSDGSTKYNEKFKGKATLTADKSSSTAYMQLNSLTSDDSAVYFCARWDYEGFDYWGQGTTLTVSS VL: DIVMTQSPATLSVTPGDRVSLSCRASQSISDYLNWYQQKSHESPRLLIKYASQSISGIPSRFSGSGSGSDFTLSINSVEPEDVGVYYCQNGHSFPPTFGSGTKLEIK	0.0107
SCT-Aa04(h/h) (antibody, V domains shown, Full IgG format, chimeric: human IgG1 heavy chain constant region, human kappa light chain constant region) VH: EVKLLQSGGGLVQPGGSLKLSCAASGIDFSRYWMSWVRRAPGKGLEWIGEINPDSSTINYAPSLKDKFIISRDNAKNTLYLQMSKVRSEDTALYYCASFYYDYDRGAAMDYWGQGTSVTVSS VL: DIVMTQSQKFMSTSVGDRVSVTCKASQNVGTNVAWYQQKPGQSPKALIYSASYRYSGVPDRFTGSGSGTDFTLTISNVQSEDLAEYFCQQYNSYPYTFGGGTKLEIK	0.27
SCT-Aa06(h/h) (antibody, V domains shown, Full IgG format, chimeric: human IgG1 heavy chain constant region, human kappa light chain constant region) VH: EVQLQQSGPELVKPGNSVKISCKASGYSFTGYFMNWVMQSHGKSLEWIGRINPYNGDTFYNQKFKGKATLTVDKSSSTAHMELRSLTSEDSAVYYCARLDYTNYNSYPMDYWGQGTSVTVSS VL: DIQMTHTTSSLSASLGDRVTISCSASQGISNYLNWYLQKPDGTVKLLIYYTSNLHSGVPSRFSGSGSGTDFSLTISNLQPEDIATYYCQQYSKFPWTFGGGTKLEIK	0.0972

# context switch: different binder, same EC50
Prompt: For the binder SCT-Aa13(h/h) (antibody, V domains shown, Full IgG format, chimeric: human IgG1 heavy chain constant region, human kappa light chain constant region) VH: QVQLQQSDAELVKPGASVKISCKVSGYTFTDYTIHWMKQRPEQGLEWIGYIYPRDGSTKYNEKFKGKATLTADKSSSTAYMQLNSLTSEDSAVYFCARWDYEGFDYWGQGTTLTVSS VL: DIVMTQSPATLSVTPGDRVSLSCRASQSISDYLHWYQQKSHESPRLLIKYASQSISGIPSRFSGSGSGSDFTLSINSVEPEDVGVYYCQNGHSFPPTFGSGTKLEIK , what EC50 is on record?
Completion: 0.019
